All values here come from patent US20140228349A1.

pIC50: −log10 of the molar value.
measured-quantity: pIC50

pIC50 value, target or system JAK1 (Homo sapiens, UniProt P23458), for `C#CCCn1cc(-c2nc(-c3cnn(C)c3)cc3nccn23)cn1` : 6.00 to 7.00

pIC50 value, target or system JAK1 (Homo sapiens, UniProt P23458), for COCCC(C1CC1(F)F)n1cc(-c2nc(-c3cnn(C)c3)cc3nccn23)cn1 (stereo not shown) : 6.00 to 7.00

pIC50 value, target or system JAK1 (Homo sapiens, UniProt P23458), for `Cn1cc(-c2cc3nccn3c(-c3cnn(C4(CCO)CCC4)c3)n2)cn1` : < 6.00

pIC50 value, target or system JAK1 (Homo sapiens, UniProt P23458), for `Cn1cc(-c2cc3nccn3c(-c3cnn(C4(CC(=O)O)CN(S(=O)(=O)C(F)(F)F)C4)c3)n2)cn1` : < 6.00

----------
For each of the compounds below, state its pIC50.
- tested-target: Human Tyk2 kinase domain (Homo sapiens, UniProt P29597)
- Sequence (P29597 886-1187): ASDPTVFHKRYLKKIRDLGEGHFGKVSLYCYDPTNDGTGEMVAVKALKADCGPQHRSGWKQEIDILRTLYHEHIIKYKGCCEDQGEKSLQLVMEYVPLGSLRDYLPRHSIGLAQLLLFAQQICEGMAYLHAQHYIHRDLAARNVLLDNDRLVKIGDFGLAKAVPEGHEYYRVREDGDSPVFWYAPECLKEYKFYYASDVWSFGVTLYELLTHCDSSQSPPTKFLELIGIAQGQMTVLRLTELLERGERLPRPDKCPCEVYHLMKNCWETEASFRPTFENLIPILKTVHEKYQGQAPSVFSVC
pIC50: −log10 of the molar value.

pIC50 value, target or system Human Tyk2 kinase domain (Homo sapiens, UniProt P29597), for `Cn1cc(-c2cc3nccn3c(-c3cnn(C4(CCF)CN(S(=O)(=O)C(F)(F)F)C4)c3)n2)cn1` : > 8.00

pIC50 value, target or system Human Tyk2 kinase domain (Homo sapiens, UniProt P29597), for `Cn1cc(-c2cc3nccn3c(-c3cnn([C@H](CC=C(F)F)C4CC4)c3)n2)cn1` : > 8.00

pIC50 value, target or system Human Tyk2 kinase domain (Homo sapiens, UniProt P29597), for COCCC(C1CCC1)n1cc(-c2nc(-c3cnn(C)c3)cc3nccn23)cn1 (centres unmarked) : 6.00 to 7.00

pIC50 value, target or system Human Tyk2 kinase domain (Homo sapiens, UniProt P29597), for `Cn1cc(-c2cc3nccn3c(-c3ccn([C@@H](C[C@H](O)C(F)(F)F)C4CC4)c3)n2)cn1` : 7.00 to 8.00

pIC50 value, target or system Human Tyk2 kinase domain (Homo sapiens, UniProt P29597), for Cn1cc(-c2cc3nccn3c(-c3cnn(C(CCO)c4ccc(F)cc4)c3)n2)cn1 (centres unmarked) : 6.00 to 7.00

pIC50 value, target or system Human Tyk2 kinase domain (Homo sapiens, UniProt P29597), for `Cn1cc(-c2cc3nccn3c(-c3cnn(C4(CC(C)(C)O)CN(S(=O)(=O)C(F)(F)F)C4)c3)n2)cn1` : 6.00 to 7.00

pIC50 value, target or system Human Tyk2 kinase domain (Homo sapiens, UniProt P29597), for Cn1cc(-c2cc3nccn3c(-c3cnn(C(CCO)C4CCC4)c3)n2)cn1 (centres unmarked) : 6.00 to 7.00

pIC50 value, target or system Human Tyk2 kinase domain (Homo sapiens, UniProt P29597), for `CC[C@H](CCF)n1cc(-c2nc(-c3cnn(C)c3)cc3nccn23)cn1` : > 8.00

----------
- tested-target: Human Tyk2 kinase domain (Homo sapiens)
- Sequence (P29597 886-1187): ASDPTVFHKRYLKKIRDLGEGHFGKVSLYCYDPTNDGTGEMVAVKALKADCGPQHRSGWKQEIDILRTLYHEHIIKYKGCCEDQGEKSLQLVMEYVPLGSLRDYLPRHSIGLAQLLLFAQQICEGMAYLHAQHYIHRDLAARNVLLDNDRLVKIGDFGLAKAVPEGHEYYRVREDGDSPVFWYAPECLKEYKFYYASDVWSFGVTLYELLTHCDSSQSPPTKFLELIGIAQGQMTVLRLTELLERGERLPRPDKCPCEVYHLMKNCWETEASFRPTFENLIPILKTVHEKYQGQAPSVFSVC
measured-quantity: IC50

Recorded result, `Cn1cc(-c2cc3nccn3c(-c3cnn(C4(CCF)CN(S(=O)(=O)C(F)F)C4)c3)n2)cn1` , IC50: < 10 nM

Recorded result, CCC(CCCO)n1cc(-c2nc(-c3cnn(C)c3)cc3nccn23)cn1 (centres unmarked) , IC50: 10 to 100 nM

Recorded result, COCCC(C1CC1)n1cc(-c2nc(-c3cnn(C)c3)cc3nccn23)cn1 (centres unmarked) , IC50: 10 to 100 nM

Recorded result, COCCC(C1CCCC1)n1cc(-c2nc(-c3cnn(C)c3)cc3nccn23)cn1 (centres unmarked) , IC50: 100 to 1000 nM

Recorded result, Cn1cc(-c2cc3nccn3c(-c3cnn(C(CCF)C4CCCC4)c3)n2)cn1 (centres unmarked) , IC50: < 10 nM

Recorded result, `Cn1cc(-c2cc3nccn3c(-c3cnn(C4(CCO)CCC4)c3)n2)cn1` , IC50: 100 to 1000 nM

Recorded result, `Cn1cc(-c2cc3nccn3c(-c3ccn(C4(CCF)CN(CC#N)C4)c3)n2)cn1` , IC50: 10 to 100 nM

Recorded result, C=CCC(CC1CC1)n1cc(-c2nc(-c3cnn(C)c3)cc3nccn23)cn1 (centres unmarked) , IC50: < 10 nM

Recorded result, `C/C=C/[C@H](C1CC1)n1cc(-c2nc(-c3cnn(C)c3)cc3nccn23)cn1` , IC50: 100 to 1000 nM

Recorded result, COC(=O)CC(c1ccccc1)n1cc(-c2nc(-c3cnn(C)c3)cc3nccn23)cn1 (centres unmarked) , IC50: 100 to 1000 nM

Recorded result, Cn1cc(-c2cc3nccn3c(-c3cnn(C(CCC(F)F)C4CC4)c3)n2)cn1 (centres unmarked) , IC50: 10 to 100 nM

Recorded result, CCOC(=O)CC(C1CC1)n1cc(-c2nc(-c3cnn(C)c3)cc3nccn23)cn1 (centres unmarked) , IC50: 100 to 1000 nM

Recorded result, `Cc1cc(-c2cc3nccn3c(-c3cnn(C4(CCF)CN(S(=O)(=O)C(F)(F)F)C4)c3)n2)[nH]n1` , IC50: < 10 nM

Recorded result, Cn1cc(-c2cc3nccn3c(-c3cnn(C(CCCF)C4CC4)c3)n2)cn1 (centres unmarked) , IC50: 10 to 100 nM

Recorded result, `CSCCn1cc(-c2nc(-c3cnn(C)c3)cc3nccn23)cn1` , IC50: 10 to 100 nM

Recorded result, `Cn1cc(-c2cc3nccn3c(-c3ccn([C@H](CCF)[C@H]4CC4(F)F)c3)n2)cn1` , IC50: < 10 nM

Recorded result, `Cn1cc(-c2cc3nccn3c(-c3cnn(C(CC4CC4)CC4CC4)c3)n2)cn1` , IC50: 10 to 100 nM

----------
For each of the compounds below, state its IC50.
- tested-target: JAK3 (Homo sapiens)
- Sequence (P52333 1-1124): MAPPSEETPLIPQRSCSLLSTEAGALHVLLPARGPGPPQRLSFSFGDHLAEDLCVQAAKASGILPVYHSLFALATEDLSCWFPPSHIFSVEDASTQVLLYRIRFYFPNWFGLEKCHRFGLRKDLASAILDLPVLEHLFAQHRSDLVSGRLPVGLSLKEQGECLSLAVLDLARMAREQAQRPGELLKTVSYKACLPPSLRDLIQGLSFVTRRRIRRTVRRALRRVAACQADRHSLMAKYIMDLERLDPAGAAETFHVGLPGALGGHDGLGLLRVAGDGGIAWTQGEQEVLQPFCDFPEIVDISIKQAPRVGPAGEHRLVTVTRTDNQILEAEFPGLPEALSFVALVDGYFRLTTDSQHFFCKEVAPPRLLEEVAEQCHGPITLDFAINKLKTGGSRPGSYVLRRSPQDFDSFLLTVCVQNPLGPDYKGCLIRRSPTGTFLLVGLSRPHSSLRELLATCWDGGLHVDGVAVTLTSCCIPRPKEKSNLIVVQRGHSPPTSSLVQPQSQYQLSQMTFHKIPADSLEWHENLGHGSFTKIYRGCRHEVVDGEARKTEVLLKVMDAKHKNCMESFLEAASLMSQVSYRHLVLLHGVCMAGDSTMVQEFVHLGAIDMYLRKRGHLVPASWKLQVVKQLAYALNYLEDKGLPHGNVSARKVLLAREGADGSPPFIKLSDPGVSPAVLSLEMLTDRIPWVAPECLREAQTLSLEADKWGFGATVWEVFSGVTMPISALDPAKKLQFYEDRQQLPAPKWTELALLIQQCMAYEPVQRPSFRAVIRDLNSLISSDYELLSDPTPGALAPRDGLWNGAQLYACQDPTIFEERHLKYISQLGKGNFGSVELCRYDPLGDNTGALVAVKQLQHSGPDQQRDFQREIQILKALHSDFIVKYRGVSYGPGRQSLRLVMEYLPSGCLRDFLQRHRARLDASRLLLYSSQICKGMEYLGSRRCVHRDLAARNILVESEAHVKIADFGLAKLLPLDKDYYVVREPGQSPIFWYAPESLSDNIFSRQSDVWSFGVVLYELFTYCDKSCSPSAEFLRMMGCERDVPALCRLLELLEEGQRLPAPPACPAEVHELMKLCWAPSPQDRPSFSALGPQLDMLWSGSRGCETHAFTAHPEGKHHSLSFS

Recorded result, `Cn1cc(-c2cc3nccn3c(-c3cnn(C4(CCF)CN(S(=O)(=O)CC(F)(F)F)C4)c3)n2)cn1` , IC50: > 1000 nM

Recorded result, `CC(=O)N1CC(CCF)(n2cc(-c3nc(-c4cnn(C)c4)cc4nccn34)cn2)C1` , IC50: > 1000 nM

Recorded result, Cn1cc(-c2cc3nccn3c(-c3cnn(C(CCO)C4CCCCC4)c3)n2)cn1 (stereo not shown) , IC50: > 1000 nM

Recorded result, COCCC(C1CC1)n1cc(-c2nc(-c3cnn(C)c3)cc3nccn23)cn1 (stereo not shown) , IC50: > 1000 nM

Recorded result, `Cn1cc(-c2cc3nccn3c(-c3cnn(C(CC4CC4)CC4CC4)c3)n2)cn1` , IC50: 100 to 1000 nM

Recorded result, COCCC(C1CCCCC1)n1cc(-c2nc(-c3cnn(C)c3)cc3nccn23)cn1 (stereo not shown) , IC50: > 1000 nM

Recorded result, `CCC1(n2cc(-c3nc(-c4cnn(C)c4)cc4nccn34)cn2)CN(S(=O)(=O)C(F)(F)F)C1` , IC50: 100 to 1000 nM

Recorded result, `O=S(=O)(N1CC(CCF)(n2cc(-c3nc(-c4cn[nH]c4)cc4nccn34)cn2)C1)C(F)(F)F` , IC50: 100 to 1000 nM

Recorded result, `Cn1cc(-c2cc3nccn3c(-c3cnn(C4(CC(=O)O)CN(S(=O)(=O)C(F)(F)F)C4)c3)n2)cn1` , IC50: > 1000 nM

Recorded result, Cn1cc(-c2cc3nccn3c(-c3ccn(C(CCF)C4CC4)c3)n2)cn1 (stereo not shown) , IC50: 10 to 100 nM

Recorded result, C#CCC(C1CC1)n1cc(-c2nc(-c3cnn(C)c3)cc3nccn23)cn1 (stereo not shown) , IC50: 100 to 1000 nM

Recorded result, CCOC(=O)CC(C1CC1)n1cc(-c2nc(-c3cnn(C)c3)cc3nccn23)cn1 (stereo not shown) , IC50: > 1000 nM

Recorded result, Cn1cc(-c2cc3nccn3c(-c3cnn(C(CC=C(F)F)C4CC4)c3)n2)cn1 (stereo not shown) , IC50: 10 to 100 nM

Recorded result, `Cn1cc(-c2cc3nccn3c(-c3cnn(C4CCCC4)c3)n2)cn1` , IC50: > 1000 nM

Recorded result, `CO[C@H](C)Cn1cc(-c2cc3nccn3c(-c3cnn(C4(CCF)CN(S(=O)(=O)C(F)(F)F)C4)c3)n2)cn1` , IC50: 100 to 1000 nM

Recorded result, `Cn1cc(-c2cc3nccn3c(-c3ccn(C4(CCF)CN(CC#N)C4)c3)n2)cn1` , IC50: 100 to 1000 nM

Recorded result, Cn1cc(-c2cc3nccn3c(-c3cnn(C(CCO)C4CCC4)c3)n2)cn1 (stereo not shown) , IC50: > 1000 nM

Recorded result, Cn1cc(-c2cc3nccn3c(-c3cnn(C(CCCF)C4CC4)c3)n2)cn1 (stereo not shown) , IC50: 100 to 1000 nM

Recorded result, CCC(CCF)n1cc(-c2nc(-c3cnn(C)c3)cc3nccn23)cn1 (stereo not shown) , IC50: 100 to 1000 nM
